B1: PhoQ; a variant is named by its letters at X, in order, P23837 (parent)
chain: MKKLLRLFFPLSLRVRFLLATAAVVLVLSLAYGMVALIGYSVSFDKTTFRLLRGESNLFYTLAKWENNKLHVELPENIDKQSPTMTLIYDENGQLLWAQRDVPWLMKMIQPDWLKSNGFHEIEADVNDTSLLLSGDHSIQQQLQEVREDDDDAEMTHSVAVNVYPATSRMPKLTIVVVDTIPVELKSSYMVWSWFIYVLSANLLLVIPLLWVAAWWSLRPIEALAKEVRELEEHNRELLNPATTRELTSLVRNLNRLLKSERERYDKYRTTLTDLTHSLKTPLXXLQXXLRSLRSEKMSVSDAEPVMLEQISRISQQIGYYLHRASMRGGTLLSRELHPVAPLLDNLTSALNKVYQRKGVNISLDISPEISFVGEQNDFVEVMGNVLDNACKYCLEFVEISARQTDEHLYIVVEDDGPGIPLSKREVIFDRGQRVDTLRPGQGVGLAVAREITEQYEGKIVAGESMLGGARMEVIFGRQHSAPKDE

variants of: B1; assay: enrichment ratio after two sorts for PhoP signalling (ratio (wild type AVST 3.29)); higher = more functional; settings: with PhoP (E. coli)
In all, about 140,000 sequences were measured (“enrichment ratio after two sorts for PhoP signalling”: median about 0, highest 2% from about 11 on). The list comes from a sample in which the highest values are over-represented; it also holds close analogues and randomly drawn sequences.
Reported Property: enrichment ratio
Returns: the value as a bare number; no unit string appended.

// sample THCN , its enrichment ratio was 4.64

// sample NELG , its enrichment ratio was 2.34

// sample GLCI , its enrichment ratio was 9.01

// sample QCLV , its enrichment ratio was 1.13

// sample ANLV , its enrichment ratio was 14.1

// sample ADAI , its enrichment ratio was 4.82

// sample AKLV , its enrichment ratio was 16.2

// sample THNL , its enrichment ratio was 12.7

// sample MKLV , its enrichment ratio was 9.89

// sample SRML , its enrichment ratio was 4.3

// sample AYLV , its enrichment ratio was 3.08
